Target Entity: T1, VEGFR-2/NP-1 co-receptor complex (cells co-expressing hVEGFR-2 and hNP-1) (human, UniProt P35968 20-1356; O14786 22-923)
T1 construct: whole, on cells; All numbers printed for cells co-expressing both receptors are put on this molecule; also called R2 + NP1 Cells; VEGFR-2/NP-1 complex
T1 sequence (P35968 20-1356, chain 1 of 2): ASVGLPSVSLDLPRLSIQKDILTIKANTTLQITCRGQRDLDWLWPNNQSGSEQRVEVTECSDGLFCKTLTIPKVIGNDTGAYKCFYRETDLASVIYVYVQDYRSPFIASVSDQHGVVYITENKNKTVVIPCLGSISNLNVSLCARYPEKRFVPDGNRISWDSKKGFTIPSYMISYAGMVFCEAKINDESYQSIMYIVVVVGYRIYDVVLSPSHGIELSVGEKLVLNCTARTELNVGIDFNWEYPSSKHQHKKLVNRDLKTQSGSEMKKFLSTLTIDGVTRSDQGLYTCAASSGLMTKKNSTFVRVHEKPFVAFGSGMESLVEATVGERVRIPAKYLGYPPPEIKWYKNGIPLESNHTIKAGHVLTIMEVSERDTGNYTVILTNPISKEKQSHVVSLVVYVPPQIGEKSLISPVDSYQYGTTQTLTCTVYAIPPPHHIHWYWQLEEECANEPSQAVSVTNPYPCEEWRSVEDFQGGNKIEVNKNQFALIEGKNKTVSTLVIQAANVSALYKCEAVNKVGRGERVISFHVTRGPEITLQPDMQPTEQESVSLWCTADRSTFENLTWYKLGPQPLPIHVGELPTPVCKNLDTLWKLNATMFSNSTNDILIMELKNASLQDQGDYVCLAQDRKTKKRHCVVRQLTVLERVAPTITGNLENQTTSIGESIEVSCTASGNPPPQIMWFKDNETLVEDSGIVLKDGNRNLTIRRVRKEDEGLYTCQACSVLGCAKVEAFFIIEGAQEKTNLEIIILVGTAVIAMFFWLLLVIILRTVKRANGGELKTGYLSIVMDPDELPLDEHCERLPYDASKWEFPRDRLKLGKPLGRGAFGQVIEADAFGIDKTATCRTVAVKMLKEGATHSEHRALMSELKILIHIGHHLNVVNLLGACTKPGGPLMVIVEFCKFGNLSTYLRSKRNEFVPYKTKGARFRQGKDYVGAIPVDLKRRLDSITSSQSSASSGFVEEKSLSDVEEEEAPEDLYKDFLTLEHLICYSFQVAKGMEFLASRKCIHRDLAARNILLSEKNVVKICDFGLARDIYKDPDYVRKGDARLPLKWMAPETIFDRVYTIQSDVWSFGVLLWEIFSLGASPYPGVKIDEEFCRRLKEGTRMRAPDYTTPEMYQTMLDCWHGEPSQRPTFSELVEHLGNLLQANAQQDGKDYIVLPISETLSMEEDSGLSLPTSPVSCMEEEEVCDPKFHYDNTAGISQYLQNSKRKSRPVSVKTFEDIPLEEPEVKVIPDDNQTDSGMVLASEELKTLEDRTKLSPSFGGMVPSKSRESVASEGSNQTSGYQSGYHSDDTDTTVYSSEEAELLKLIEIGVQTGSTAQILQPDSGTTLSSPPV
T1 sequence (O14786 22-923, chain 2 of 2): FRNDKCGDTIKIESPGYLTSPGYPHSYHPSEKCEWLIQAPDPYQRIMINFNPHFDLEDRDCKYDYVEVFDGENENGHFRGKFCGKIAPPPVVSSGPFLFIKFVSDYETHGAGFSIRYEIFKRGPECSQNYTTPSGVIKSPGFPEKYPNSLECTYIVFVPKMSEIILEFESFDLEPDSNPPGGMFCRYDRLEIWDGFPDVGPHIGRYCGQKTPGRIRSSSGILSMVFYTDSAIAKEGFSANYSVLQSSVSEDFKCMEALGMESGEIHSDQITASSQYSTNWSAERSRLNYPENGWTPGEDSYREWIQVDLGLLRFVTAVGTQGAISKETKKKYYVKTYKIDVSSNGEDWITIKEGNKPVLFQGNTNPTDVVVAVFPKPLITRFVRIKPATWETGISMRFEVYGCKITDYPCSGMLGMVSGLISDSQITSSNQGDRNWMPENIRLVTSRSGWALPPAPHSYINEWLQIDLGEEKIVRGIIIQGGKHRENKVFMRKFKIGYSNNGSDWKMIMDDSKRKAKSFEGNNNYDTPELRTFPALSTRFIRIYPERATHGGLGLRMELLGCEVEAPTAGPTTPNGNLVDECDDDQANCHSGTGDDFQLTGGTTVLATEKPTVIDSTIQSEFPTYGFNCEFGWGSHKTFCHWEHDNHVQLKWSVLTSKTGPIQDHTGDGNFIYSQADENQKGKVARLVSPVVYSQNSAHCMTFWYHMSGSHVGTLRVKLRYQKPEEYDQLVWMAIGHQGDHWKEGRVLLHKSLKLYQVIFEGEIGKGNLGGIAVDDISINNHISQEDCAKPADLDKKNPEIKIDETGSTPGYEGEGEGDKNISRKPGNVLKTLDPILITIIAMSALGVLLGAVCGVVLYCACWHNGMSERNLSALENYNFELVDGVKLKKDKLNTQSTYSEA
Assay Comment: 125I-VEGF165 (201 pM) competition, cells overexpressing VEGFR-2 and NP-1 (FIG. 7)
Catalogue of pIC50 readings, one per entry.
Scale explanation: pIC50 corresponds to minus log10 of a concentration expressed in moles per litre.

# Binder, pIC50
records = [
    ("RRPKGRGKRRREKQRPDAVPRR (also called P6P7 peptide) [P6P7]", 5.93),
]

IN: Endpoint output: pIC50 of RRPKGRGKRRREKQRP (also called P6 peptide; pp6) [P6] . Value?
OUT: 4.91
